Origin of values: paper PMC5615911

# protocolDetails: Pharmacokinetics of S3643, single iv or oral dose
# Assay type: in vivo, Sprague-Dawley rats
# recordedConditions: female, Sprague-Dawley, rat, plasma, iv, 1 mg/kg

{"compound": "COc1cccc(-c2n[nH]c(SCc3ccccn3)n2)c1OC [S3643]", "Vd / L/kg": 0.325}

---

# protocolDetails: Toxicokinetics in the 90-day dietary study
# Type: in vivo, Sprague-Dawley rats
# recordedConditions: both, Sprague-Dawley (Crl:CD(SD)), rat, plasma, po, 100 mg/kg bw/day, Combined mean AUC0-24hr, Day 90, 100 mg/kg bw/day
observedProperty: AUC(0-t) (µg·h/mL)

{"smilesData": "COc1cccc(-c2n[nH]c(SCc3ccccn3)n2)c1OC", "measuredValue": 184}
